In this section, each of the compounds is paired with its reported IC50.
Target: GST-tagged wild-type human CRBN protein (Homo sapiens)
Sequence (Q96SW2 whole entry): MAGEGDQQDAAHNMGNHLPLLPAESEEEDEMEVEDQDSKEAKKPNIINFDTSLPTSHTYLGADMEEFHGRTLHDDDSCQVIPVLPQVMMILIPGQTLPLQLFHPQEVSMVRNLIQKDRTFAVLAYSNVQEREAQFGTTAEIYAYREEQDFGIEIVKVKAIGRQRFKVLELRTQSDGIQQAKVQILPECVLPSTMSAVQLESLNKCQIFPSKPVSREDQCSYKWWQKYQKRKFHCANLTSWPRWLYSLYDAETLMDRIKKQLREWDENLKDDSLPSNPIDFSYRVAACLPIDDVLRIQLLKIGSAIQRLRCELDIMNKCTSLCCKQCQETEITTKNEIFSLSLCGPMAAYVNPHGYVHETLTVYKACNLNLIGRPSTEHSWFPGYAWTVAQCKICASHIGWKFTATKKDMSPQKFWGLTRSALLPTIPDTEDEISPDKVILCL

- O=C1CCC(N2C(=O)c3cc4c(cc3C2=O)CN(C2CCC(C(=O)O)CC2)C4)C(=O)N1 (stereo not drawn): 500 to 1000 nM

Ask | Identify the measured IC50 of O=C1CCC(N2C(=O)c3cc4c(cc3C2=O)CN(Cc2cnc(Cl)nc2)C4)C(=O)N1 (stereo not drawn) for GST-tagged wild-type human CRBN protein (Homo sapiens).
Reply | 1000 to 10000 nM

Ask | Identify the measured IC50 of O=C1CCC(N2Cc3cc4c(cc3C2=O)CC2(CNC2)C4)C(=O)N1 (stereo not drawn) for GST-tagged wild-type human CRBN protein (Homo sapiens).
Reply | 1000 to 10000 nM
